- PROCEDURE_TEXT: LEN plasma concentrations during oral bridging period, CALIBRATE (Phase 2, ARV-naive PWH)
- Format: in vivo
- APPLIED_CONDITIONS: human, plasma, sc, 300 mg, SC LEN total, Week 20, read-out: Mean LEN plasma concentration
PROPERTY_MEASURED: concentration at 20 week (ng/mL)
Output spec: scalar in ng/mL, unitless text.

Request: Supply recorded concentration at 20 week for "CC(C)(C#Cc1ccc(-c2ccc(Cl)c3c(NS(C)(=O)=O)nn(CC(F)(F)F)c23)c([C@H](Cc2cc(F)cc(F)c2)NC(=O)Cn2nc(C(F)(F)F)c3c2C(F)(F)[C@@H]2C[C@H]32)n1)S(C)(=O)=O" here.
Result: 52.5

###

- PROCEDURE_TEXT: LEN plasma concentrations during oral bridging period, CALIBRATE (Phase 2, ARV-naive PWH)
- Format: in vivo
- APPLIED_CONDITIONS: human, plasma, sc, 300 mg, SC LEN total, Day 1, read-out: Lower 90% CI of Concentration
PROPERTY_MEASURED: concentration at 1 day (ng/mL)
Output spec: scalar in ng/mL, unitless text.

Request: Supply recorded concentration at 1 day for "CC(C)(C#Cc1ccc(-c2ccc(Cl)c3c(NS(C)(=O)=O)nn(CC(F)(F)F)c23)c([C@H](Cc2cc(F)cc(F)c2)NC(=O)Cn2nc(C(F)(F)F)c3c2C(F)(F)[C@@H]2C[C@H]32)n1)S(C)(=O)=O" here.
Result: 25.3

###

- PROCEDURE_TEXT: LEN plasma concentrations during oral bridging period, CALIBRATE (Phase 2, ARV-naive PWH)
- Assay type: in vivo
- APPLIED_CONDITIONS: human, plasma, sc, 300 mg, SC LEN total, Week 30, read-out: Lower 90% CI of Concentration
PROPERTY_MEASURED: concentration at 30 week

Request: Supply recorded concentration at 30 week for CC(C)(C#Cc1ccc(-c2ccc(Cl)c3c(NS(C)(=O)=O)nn(CC(F)(F)F)c23)c([C@H](Cc2cc(F)cc(F)c2)NC(=O)Cn2nc(C(F)(F)F)c3c2C(F)(F)[C@@H]2C[C@H]32)n1)S(C)(=O)=O [LEN] here.
Result: 24.4 ng/mL

###

- PROCEDURE_TEXT: LEN plasma concentrations during oral bridging period, CALIBRATE (Phase 2, ARV-naive PWH)
- Assay type: in vivo
- APPLIED_CONDITIONS: human, plasma, oral, 300 mg, Treatment Group 2, Day 1, read-out: Lower 90% CI of Concentration
PROPERTY_MEASURED: concentration at 1 day (ng/mL)
Output spec: scalar in ng/mL, unitless text.

Request: Supply recorded concentration at 1 day for "CC(C)(C#Cc1ccc(-c2ccc(Cl)c3c(NS(C)(=O)=O)nn(CC(F)(F)F)c23)c([C@H](Cc2cc(F)cc(F)c2)NC(=O)Cn2nc(C(F)(F)F)c3c2C(F)(F)[C@@H]2C[C@H]32)n1)S(C)(=O)=O" here.
Result: 23

###

- PROCEDURE_TEXT: LEN plasma concentrations during oral bridging period, CALIBRATE (Phase 2, ARV-naive PWH)
- Assay type: in vivo
- APPLIED_CONDITIONS: human, plasma, sc, 300 mg, Treatment Group 1 (SC LEN + [DVY→TAF]), Day 1, read-out: Mean LEN plasma concentration
PROPERTY_MEASURED: concentration at 1 day (ng/mL)
Output spec: scalar in ng/mL, unitless text.

Request: Supply recorded concentration at 1 day for "CC(C)(C#Cc1ccc(-c2ccc(Cl)c3c(NS(C)(=O)=O)nn(CC(F)(F)F)c23)c([C@H](Cc2cc(F)cc(F)c2)NC(=O)Cn2nc(C(F)(F)F)c3c2C(F)(F)[C@@H]2C[C@H]32)n1)S(C)(=O)=O" here.
Result: 28.8

###

- PROCEDURE_TEXT: clinical
- APPLIED_CONDITIONS: human, in vivo, po, Lower 90% CI of LEN concentration
PROPERTY_MEASURED: concentration at 30 week

Request: Supply recorded concentration at 30 week for CC(C)(C#Cc1ccc(-c2ccc(Cl)c3c(NS(C)(=O)=O)nn(CC(F)(F)F)c23)c([C@H](Cc2cc(F)cc(F)c2)NC(=O)Cn2nc(C(F)(F)F)c3c2C(F)(F)[C@@H]2C[C@H]32)n1)S(C)(=O)=O [LEN] here.
Result: 29.9 ng/mL

###

- PROCEDURE_TEXT: LEN plasma concentrations during oral bridging period, CALIBRATE (Phase 2, ARV-naive PWH)
- Type: in vivo
- APPLIED_CONDITIONS: human, plasma, sc, 300 mg, SC LEN total, Week 10, read-out: Mean LEN plasma concentration
PROPERTY_MEASURED: concentration at 10 week (ng/mL)
Output spec: scalar in ng/mL, unitless text.

Request: Supply recorded concentration at 10 week for CC(C)(C#Cc1ccc(-c2ccc(Cl)c3c(NS(C)(=O)=O)nn(CC(F)(F)F)c23)c([C@H](Cc2cc(F)cc(F)c2)NC(=O)Cn2nc(C(F)(F)F)c3c2C(F)(F)[C@@H]2C[C@H]32)n1)S(C)(=O)=O [LEN] here.
Result: 54.9

###

- PROCEDURE_TEXT: LEN plasma concentrations during oral bridging period, CALIBRATE (Phase 2, ARV-naive PWH)
- Type: in vivo
- APPLIED_CONDITIONS: human, plasma, oral, 300 mg, Treatment Group 1, Week 10, read-out: Lower 90% CI of Concentration
PROPERTY_MEASURED: concentration at 10 week (ng/mL)
Output spec: scalar in ng/mL, unitless text.

Request: Supply recorded concentration at 10 week for "CC(C)(C#Cc1ccc(-c2ccc(Cl)c3c(NS(C)(=O)=O)nn(CC(F)(F)F)c23)c([C@H](Cc2cc(F)cc(F)c2)NC(=O)Cn2nc(C(F)(F)F)c3c2C(F)(F)[C@@H]2C[C@H]32)n1)S(C)(=O)=O" here.
Result: 41.1

###

- PROCEDURE_TEXT: LEN plasma concentrations during oral bridging period, CALIBRATE (Phase 2, ARV-naive PWH)
- Assay type: in vivo
- APPLIED_CONDITIONS: human, plasma, oral, 300 mg, Treatment Group 2, Week 10, read-out: Mean LEN plasma concentration
PROPERTY_MEASURED: concentration at 10 week (ng/mL)
Output spec: scalar in ng/mL, unitless text.

Request: Supply recorded concentration at 10 week for "CC(C)(C#Cc1ccc(-c2ccc(Cl)c3c(NS(C)(=O)=O)nn(CC(F)(F)F)c23)c([C@H](Cc2cc(F)cc(F)c2)NC(=O)Cn2nc(C(F)(F)F)c3c2C(F)(F)[C@@H]2C[C@H]32)n1)S(C)(=O)=O" here.
Result: 59.3

###

- PROCEDURE_TEXT: LEN plasma concentrations during oral bridging period, CALIBRATE (Phase 2, ARV-naive PWH)
- Assay type: in vivo
- APPLIED_CONDITIONS: human, plasma, oral, 300 mg, Treatment Group 2, Week 10, read-out: Lower 90% CI of Concentration
PROPERTY_MEASURED: concentration at 10 week (ng/mL)
Output spec: scalar in ng/mL, unitless text.

Request: Supply recorded concentration at 10 week for "CC(C)(C#Cc1ccc(-c2ccc(Cl)c3c(NS(C)(=O)=O)nn(CC(F)(F)F)c23)c([C@H](Cc2cc(F)cc(F)c2)NC(=O)Cn2nc(C(F)(F)F)c3c2C(F)(F)[C@@H]2C[C@H]32)n1)S(C)(=O)=O" here.
Result: 46.4

###

- PROCEDURE_TEXT: clinical
- APPLIED_CONDITIONS: human, in vivo, po, Lower 90% CI of LEN concentration
PROPERTY_MEASURED: concentration at 1 day (ng/mL)
Output spec: scalar in ng/mL, unitless text.

Request: Supply recorded concentration at 1 day for "CC(C)(C#Cc1ccc(-c2ccc(Cl)c3c(NS(C)(=O)=O)nn(CC(F)(F)F)c23)c([C@H](Cc2cc(F)cc(F)c2)NC(=O)Cn2nc(C(F)(F)F)c3c2C(F)(F)[C@@H]2C[C@H]32)n1)S(C)(=O)=O" here.
Result: 40.3

###

- PROCEDURE_TEXT: LEN plasma concentrations during oral bridging period, CALIBRATE (Phase 2, ARV-naive PWH)
- Format: in vivo
- APPLIED_CONDITIONS: human, plasma, oral, 300 mg, Treatment Group 1, Week 30, read-out: Mean LEN plasma concentration
PROPERTY_MEASURED: concentration at 30 week (ng/mL)
Output spec: scalar in ng/mL, unitless text.

Request: Supply recorded concentration at 30 week for "CC(C)(C#Cc1ccc(-c2ccc(Cl)c3c(NS(C)(=O)=O)nn(CC(F)(F)F)c23)c([C@H](Cc2cc(F)cc(F)c2)NC(=O)Cn2nc(C(F)(F)F)c3c2C(F)(F)[C@@H]2C[C@H]32)n1)S(C)(=O)=O" here.
Result: 43.7

Origin of measurements: patent US20240390349A1
